# target-desc: T1, BPTF PHD zinc finger
# T1 chain: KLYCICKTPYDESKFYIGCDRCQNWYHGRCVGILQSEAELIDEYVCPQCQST
# experimental-protocol: ITC; 350–600 μM H3K4me3 or H3C4me3 peptide titrated to 25–40 μM protein (JMJD2A–H3C4me3: 3 mM peptide to 200 μM JMJD2A); 19 injections; Microcal Auto-iTC200; one set of sites model; 5–7 repeats
# setup-conditions: both partners purified
Ends that are not written are not given here. Me3 = trimethyllysine (Kme3)
outcome-measure: Kd (µM)
Just the number in µM, nothing appended.

{"columns": ["binder", "reading-unit", "Kd"],
 "data": [
  ["ARTK(Me3)QTARKS-OH (histone H3, residues 1-10, with Kme3 at the fourth position; Peptides appear as TFA salts; also called H3(1-10)K4me3; source: synthetic peptide (solid-phase synthesis, Fmoc chemistry, preparative HPLC)) [10-mer H3K4me3 histone peptide]", "µM", 0.49]
]}

Would you kindly look at the next entry?
Record request: Kd value, item ARTXQTARKS (Cme3 (neutral carba analogue of trimethyllysine, tert-butyl in place of trimethylammonium) at position 4; carboxylic acid at the C terminus) [10-mer H3C4me3 histone peptide]
0.76
